- System: Marburg virus (MARV)
- measurement description: organism not typed
- Format: cell-based
- assay context: Vero, 72 h, read-out: Percent viral inhibition MARV
parameter measured: inhibition at 1 µM (%)

>>> measured_number("CN1CCN(c2ncc(Oc3cc(CN4CCC(CC(=O)O)CC4)cc(-c4cc(Cl)cc(Cl)c4)n3)cn2)CC(C)(O)C1 (stereo not drawn)")
66.2
>>> measured_number("CC(=O)NCC1CCN(Cc2cc(Oc3cnc(N4CCN(C(C)CCS(C)(=O)=O)CC4)nc3)nc(-c3cc(Cl)cc(Cl)c3)c2)CC1 (stereo not drawn)")
79.8
>>> measured_number("CC(C)N1CCN(c2cnc(Oc3cc(CN4CCC(CC(=O)O)CC4)cc(-c4cc(Cl)cc(Cl)c4)n3)cn2)CC1")
57.7

----------
- Tested on: Chikungunya virus (CHIKV)
- measurement description: microbe, parasite or virus in culture
- Type: cell-based
- assay context: Chikungunya virus, Vero, 48 h, read-out: Percent viral inhibition CHKV
Okay, here is how we bin by inhibition at 1 µM: b0: < 20%; b1: ≥ 20% and < 30%; b2: ≥ 30%

>>> group_label("CN1CCN(c2cnc(Oc3cc(CN4CCC(OC5(C(=O)O)CC5)CC4)cc(-c4cc(Cl)cc(Cl)c4)n3)cn2)CC1")
"b0"
>>> group_label("NC(=O)OCCN1CCN(Cc2cc(Oc3ccc(N4CCN(CCC(=O)O)CC4)nc3)nc(-c3cc(Cl)cc(Cl)c3)c2)CC1")
"b0"
>>> group_label("CN1CCN(c2ncc(Oc3cc(CN4CCC(OC5(C(=O)O)CC5)CC4)cc(-c4cc(Cl)cc(Cl)c4)n3)cn2)CC1")
"b2"
>>> group_label("O=C(O)CCC1CCN(Cc2cc(Oc3cnc(N4CCN(CCO)CC4)nc3)cc(-c3cc(Cl)cc(Cl)c3)c2)CC1")
"b1"
>>> group_label("COC(=O)NC(=O)NCC1CCN(Cc2cc(Oc3cnc(N4CCN(C)CC4)nc3)nc(-c3cc(Cl)cc(Cl)c3)c2)CC1")
"b0"
>>> group_label("CC(=O)CC1CCN(Cc2cc(Oc3cnc(N4CCN(C)CC4)nc3)nc(-c3cc(Cl)cc(Cl)c3)c2)CC1")
"b0"
>>> group_label("CNC(=O)OCC1CCN(Cc2cc(Oc3cnc(N4CCN(C(C)CCC(=O)O)CC4)nc3)nc(-c3cc(Cl)cc(Cl)c3)c2)CC1 (centres unmarked)")
"b2"
>>> group_label("C[C@H](CC1CCN(Cc2cc(Oc3ccc(N4CCN(C)CC4)nn3)nc(-c3cc(Cl)cc(Cl)c3)c2)CC1)C(=O)O")
"b2"
>>> group_label("CNCc1cc(Oc2ccc(N3CCNCC3)nc2)cc(-c2cc(Cl)cc(Cl)c2)c1")
"b0"
>>> group_label("COC(=O)NCC1CCN(Cc2cc(Oc3cnc(N4CCNCC4)nc3)nc(-c3cc(F)cc(Cl)c3)c2)CC1")
"b0"
>>> group_label("CC(CC1CCN(Cc2cc(Oc3ccc(N4CCN(C)CC4)nc3)nc(-c3cc(Cl)cc(Cl)c3)c2)CC1)C(=O)O (centres unmarked)")
"b1"
>>> group_label("CNCc1cc(Oc2ccc(N3CCC(N)CC3)nc2)nc(-c2cc(C)cc(Cl)c2)c1")
"b0"

----------
- System: Marburg virus (MARV)
- measurement description: organism not typed
- Assay type: cell-based
- assay context: Vero, 72 h, read-out: Percent viral inhibition MARV
parameter measured: inhibition at 1 µM (%)

>>> measured_number("CC(CCN1CCN(c2ncc(Oc3cc(CN4CC[C@@H]5[C@H](CC4)[C@H]5NS(C)(=O)=O)cc(-c4cc(Cl)cc(Cl)c4)n3)cn2)CC1)C(=O)O (stereo partly drawn) [Example 81]")
73.7
>>> measured_number("O=C(O)CC1CCN(Cc2cc(Oc3cnc(N4CCN5CCC4C5)nc3)nc(-c3cc(Cl)cc(Cl)c3)c2)CC1 (stereo not drawn) [Example 334]")
41.4
>>> measured_number("CC(CC1CCN(Cc2cc(Oc3cnc(N4CCN(C[C@@H](C)O)CC4)nc3)nc(-c3cc(Cl)cc(Cl)c3)c2)CC1)C(=O)O (stereo partly drawn) [Example 301]")
68.4

----------
- Test system: Marburg virus (MARV)
- measurement description: organism not typed
- Format: cell-based
- assay context: Vero, 72 h, read-out: Percent viral inhibition MARV
Rule: inhibition at 1 µM under 50% gives Condition not met, otherwise Condition met.

>>> group_label("CN1CC2CN(c3ncc(Oc4cc(CN5CCC(CC(=O)O)CC5)cc(-c5cc(Cl)cc(Cl)c5)n4)cn3)CC2C1 (stereo not drawn) [Example 133]")
"Condition met"
>>> group_label("O=S(=O)(O)CC1CCN(Cc2cc(Oc3ccc(N4CCNCC4)nc3)nc(-c3cc(Cl)cc(Cl)c3)c2)CC1 [Example 8]")
"Condition not met"
>>> group_label("CC(CC(=O)O)C1CN(Cc2cc(Oc3cnc(N4CCN(C)CC4)nc3)nc(-c3cc(Cl)cc(Cl)c3)c2)C1 (stereo not drawn) [Example 127]")
"Condition met"
>>> group_label("CC(=O)NCC1CCN(Cc2cc(Oc3ccc(N4CCN(C(C)CCS(C)(=O)=O)CC4)nc3)nc(-c3cc(Cl)cc(Cl)c3)c2)CC1 (stereo not drawn) [Example 16]")
"Condition not met"
>>> group_label("CCN1CCCN(c2cnc(Oc3cc(CN4CCC(CC(=O)O)CC4)cc(-c4cc(Cl)cc(Cl)c4)n3)cn2)CC1 [Example 345]")
"Condition met"
>>> group_label("CC(=O)NCC1CCN(Cc2cc(Oc3ccc(N4CCN(CCOC(N)=O)CC4)nc3)nc(-c3cc(Cl)cc(Cl)c3)c2)CC1 [Example 31]")
"Condition met"
>>> group_label("CCOC(=O)NCC1CCN(Cc2cc(Oc3cnc(N4CCN(CCC(=O)O)CC4)nc3)nc(-c3cc(Cl)cc(Cl)c3)c2)CC1 [Example 267]")
"Condition met"
>>> group_label("CC(=O)NCC1CCN(Cc2cc(Oc3ccc(N4CCN(C)CC4)nn3)nc(-c3cc(Cl)cc(Cl)c3)c2)CC1 [Example 157]")
"Condition met"
>>> group_label("NC(=O)OCCN1CCN(Cc2cc(Oc3cnc(N4CCN(CCC(=O)O)CC4)nc3)nc(-c3cc(Cl)cc(Cl)c3)c2)CC1 [Example 54]")
"Condition met"
>>> group_label("O=C(O)CC1CCN(Cc2cc(Oc3cnc(N4CCNC5(CC5)C4)nc3)nc(-c3cc(Cl)cc(Cl)c3)c2)CC1 [Example 164]")
"Condition not met"
>>> group_label("CC(=O)NCC1CCN(Cc2cc(Oc3cnc(N4CCN(CC(O)CF)CC4)nc3)nc(-c3cc(Cl)cc(Cl)c3)c2)CC1 (stereo not drawn) [Example 304]")
"Condition not met"
>>> group_label("O=C(O)COC1CCN(Cc2cc(Oc3cnc(N4CCNCC4)nc3)nc(-c3cc(Cl)cc(Cl)c3)c2)CC1 [Example 122]")
"Condition not met"
>>> group_label("CCC(=O)NCC1CCN(Cc2cc(Oc3cnc(N4CCN(CCC(C)C(=O)O)CC4)nc3)nc(-c3cc(Cl)cc(Cl)c3)c2)CC1 (stereo not drawn) [Example 59]")
"Condition met"
>>> group_label("CC(CO)N1CCN(c2ncc(Oc3cc(CN4CCC(CC(=O)O)CC4)cc(-c4cc(Cl)cc(Cl)c4)n3)cn2)CC1 (stereo not drawn) [Example 21]")
"Condition not met"
>>> group_label("CN1CCCN(c2ncc(Oc3cc(CN4CCC(CC(=O)O)CC4)cc(-c4cc(Cl)cc(Cl)c4)n3)cn2)CC1 [Example 126]")
"Condition not met"
>>> group_label("COC(=O)NCC1(O)CCN(Cc2cc(Oc3ccc(N4CCNCC4)nc3)nc(-c3cc(Cl)cc(Cl)c3)c2)CC1 [Example 6]")
"Condition not met"
>>> group_label("CC(=O)NCC1CCN(Cc2cc(Oc3cnc(N4CCN(C(C)CC(N)=O)CC4)nc3)nc(-c3cc(Cl)cc(Cl)c3)c2)CC1 (stereo not drawn) [Example 95]")
"Condition met"
>>> group_label("CNC(=O)NCC1CCN(Cc2cc(Oc3ccc(N4CCN(CCCS(C)(=O)=O)CC4)nc3)nc(-c3cc(Cl)cc(Cl)c3)c2)CC1 [Example 255]")
"Condition not met"
>>> group_label("CC(CC1CCN(Cc2cc(Oc3cnc(N4CCN(C)CC4)nc3)nc(-c3cc(Cl)cc(Cl)c3)c2)CC1)C(=O)O (stereo not drawn) [Example 131]")
"Condition met"
>>> group_label("CC(CCN1CCN(c2ncc(Oc3cc(CN4CCC(CCO)CC4)cc(-c4cc(Cl)cc(Cl)c4)n3)cn2)CC1)C(=O)O (stereo not drawn) [Example 57]")
"Condition met"
>>> group_label("O=C(O)CC1CCN(Cc2cc(Oc3ccc(N4CCN5CCC4C5)nn3)nc(-c3cc(Cl)cc(Cl)c3)c2)CC1 (stereo not drawn) [Example 344]")
"Condition not met"
